The reported measurements were obtained from patent US8828985B2.

molecular target: human 11β-HSD1 (Homo sapiens); test: biochemical; conditions: 1.5 h, read-out: Biological Test Example 2 Average % inhibition at 111 nm, at 111 nm
For each of the compounds below, state its inhibition at 0.111 µM.
The response must be a number in % with no trailing unit.

Need inhibition at 0.111 µM, item `N#Cc1cnc(N[C@@H]2CCN(C(=O)O[C@H]3C4CC5C[C@@H]3C[C@](C(N)=O)(C5)C4)C2)s1`
97.3

And what about the compound CC(C)COC(=O)N[C@@H]1CCN(C(=O)NC2C3CC4CC(C3)CC2C4)C1 (stereo partly shown) ?
92.9

Check CC(C)(C)OC(=O)N1CCCC12CCN(C(=O)NC1C3CC4CC(C3)CC1C4)C2 (stereo not shown) too.
94.3

Moving on to CN(c1ccc(C#N)cn1)C1CCN(C(=O)O[C@H]2C3CC4CC2C[C@](C(N)=O)(C4)C3)C1 (stereo partly shown)
96.5

====

molecular target: human 11β-HSD1 (Homo sapiens, UniProt P28845); experiment: biochemical; details: 1.5 h, read-out: Biological Test Example 2 Average % inhibition at 100 nm, at 100 nm
Sequence (P28845 whole entry): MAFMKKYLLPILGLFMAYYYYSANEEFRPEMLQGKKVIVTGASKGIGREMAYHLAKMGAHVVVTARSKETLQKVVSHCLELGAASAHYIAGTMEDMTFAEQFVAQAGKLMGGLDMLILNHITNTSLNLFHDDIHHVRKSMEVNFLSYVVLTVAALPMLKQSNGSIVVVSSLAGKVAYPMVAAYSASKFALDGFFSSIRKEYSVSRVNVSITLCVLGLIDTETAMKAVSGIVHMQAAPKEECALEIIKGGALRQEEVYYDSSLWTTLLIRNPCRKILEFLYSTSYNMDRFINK
measured-parameter: inhibition at 0.1 µM (%)
The reply should be a number in %, with the unit left off.

Given N#Cc1cnc(N[C@@H]2CCN(C(=O)O[C@H]3C4CC5C[C@@H]3C[C@](C(N)=O)(C5)C4)C2)s1 [Example 72] , state its recorded inhibition at 0.1 µM.
97.3

And the next one, NC(=O)[C@]12CC3CC(C1)[C@@H](OC(=O)N1CC[C@@H](Nc4nnc(C(F)(F)F)s4)C1)C(C3)C2 [Example 42] ?
79.3

Try this compound too: N#Cc1cnc(N[C@@H]2CCN(C(=O)O[C@H]3C4CC5CC3C[C@](O)(C5)C4)C2)s1 [Example 82]
86.6

Also N#Cc1ccc(N2CCC3CN(C(=O)O[C@H]4C5CC6CC4C[C@](C(N)=O)(C6)C5)CC32)nc1 (stereo partly drawn) [Example 76] , if possible.
97.9

Try this compound next: N#Cc1cc(Cl)cnc1N[C@@H]1CCN(C(=O)O[C@H]2C3CC4CC2C[C@](O)(C4)C3)C1 [Example 86]
101

Now try NC(=O)C12CC3CC(C1)C(OC(=O)N1CC[C@@H](Nc4ncccc4F)C1)C(C3)C2 (stereo partly drawn) [Example 63] .
98.4

Same again, this time with CC1(Nc2ccc(C#N)cn2)CCN(C(=O)O[C@H]2C3CC4CC2C[C@](C(N)=O)(C4)C3)C1 (stereo partly drawn) [Example 69]
98.7

Then CN(c1ccc(C#N)cn1)C1CCN(C(=O)O[C@H]2C3CC4CC2C[C@](C(N)=O)(C4)C3)C1 (stereo partly drawn) [Example 74] ?
97.8

Thanks! And Cc1ccc(C#N)c(N[C@@H]2CCN(C(=O)O[C@H]3C4CC5CC3C[C@](O)(C5)C4)C2)n1 [Example 83] ?
98.5

Now the same for NC(=O)C1CC2CCCC(C1)C2OC(=O)N1CC[C@@H](Nc2ccc(C(F)(F)F)cn2)C1 (stereo partly drawn) [Example 71]
84.2

Note, next up: N#Cc1ccc(N[C@@H]2CCN(C(=O)O[C@H]3C[C@H]4CC[C@@H](C3)N4C(N)=O)C2)nc1 [Example 105]
14.8

Query O=C(NC1CC1)c1cc(Cl)cnc1N[C@@H]1CCN(C(=O)O[C@H]2C3CC4CC2C[C@](O)(C4)C3)C1 [Example 101] next
82.6

And what about the compound O=C(O[C@H]1C2CC3CC1C[C@](O)(C3)C2)N1CC[C@@H](Nc2ccc3cc(Cl)ccc3n2)C1 [Example 95] ?
90.6

What about N#Cc1ccc2nc(N[C@@H]3CCN(C(=O)O[C@H]4C5CC6CC4C[C@](O)(C6)C5)C3)cnc2c1 [Example 91] ?
63.6

Item: N#Cc1cncc(N[C@@H]2CCN(C(=O)O[C@H]3C4CC5CC3C[C@](O)(C5)C4)C2)n1 [Example 81]
54.4

====

molecular target: human 11β-HSD1 (Homo sapiens, UniProt P28845); assay: biochemical; conditions: Biological Test Example 2 IC50 Range, microsomes from CHO cells overexpressing human 11β-HSD1, SPA
pIC50: −log10 of the molar value.
measured-parameter: pIC50

Requested field: pIC50. Item: CC(C)OC(=O)N[C@@H]1CCN(C(=O)OC2C3CC4CC2CC(C(N)=O)(C4)C3)C1 (single isomer, unassigned) [Example 24 Isomer 1]
< 7.00

Then this compound: O=C(O[C@H]1C2CC3CC1C[C@](O)(C3)C2)N1CC[C@@H](Nc2cnc3cc(Cl)ccc3n2)C1 [Example 96]
> 7.00

And what about the compound CC1(Nc2ncccc2C#N)CCN(C(=O)O[C@H]2C3CC4CC2C[C@](C(N)=O)(C4)C3)C1 (stereo partly drawn) [Example 67] ?
> 7.00

Ok, now N#Cc1ccc(N[C@@H]2CCN(C(=O)NC3C4CC5CC(C4)CC3C5)C2)nc1 (stereo partly drawn) [Example 61]
> 7.00

Please give the result for N#Cc1ccc2nc(N[C@@H]3CCN(C(=O)O[C@H]4C5CC6CC4C[C@](O)(C6)C5)C3)cnc2c1 [Example 91] too.
> 7.00

Can you handle CC1(Nc2ccc(C#N)cn2)CCN(C(=O)O[C@H]2C3CC4CC2C[C@](C(N)=O)(C4)C3)C1 (stereo partly drawn) [Example 69] next?
> 7.00

For O=C(O[C@H]1C2CC3CC1C[C@](O)(C3)C2)N1CC[C@@H](Nc2ncnc3ccccc23)C1 [Example 85] then?
> 7.00

How about this compound: N#Cc1ccc2nc(N[C@@H]3CCN(C(=O)O[C@H]4C5CC6CC4C[C@](O)(C6)C5)C3)sc2c1 [Example 94]
> 7.00

# iterate: NC(=O)c1cnc(N[C@@H]2CCN(C(=O)O[C@H]3C4CC5CC3C[C@](O)(C5)C4)C2)nc1 [Example 109]
> 7.00

Now try N#Cc1cnc(N[C@@H]2CCN(C(=O)O[C@H]3C4CC5CC3C[C@](O)(C5)C4)C2)s1 [Example 82] .
> 7.00

Input CC(C)(C)OC(=O)N1CCCC12CCN(C(=O)OC1C3CC4CC1CC(C(N)=O)(C4)C3)C2 (single isomer, unassigned) [Example 30 Isomer 2]
> 7.00

Item: N#Cc1ccc(N[C@@H]2CCN(C(=O)OC3C4CC5CC3CC(C(=O)NC3CCCCC3)(C5)C4)C2)nc1 (single isomer, unassigned) [Example 117 Isomer 1]
< 7.00

Repeat with CC(C)(C)OC(=O)NC1(c2ccccc2)CCN(C(=O)NC2C3CC4CC(C3)CC2C4)C1 (stereo not drawn) [Example 60]
> 7.00

Param item: O=C(NC1CC1)c1cnc(N[C@@H]2CCN(C(=O)O[C@H]3C4CC5CC3C[C@](O)(C5)C4)C2)nc1 [Example 112]
< 7.00

Similarly, N#Cc1ccc(N[C@@H]2CCN(C(=O)O[C@H]3C4CC5CC3C[C@](O)(C5)C4)C2)cc1 [Example 78] ?
> 7.00

====

target: human 11β-HSD1 (Homo sapiens, UniProt P28845); assay: biochemical; conditions: 1.5 h, read-out: Biological Test Example 2 Average % inhibition at 100 nm, at 100 nm
Everything with inhibition at 0.1 µM lower than 90% is false; everything else, including exactly 90%, is true.

Kindly determine if inhibition at 0.1 µM recorded for N#Cc1ccc(N[C@@H]2CCN(C(=O)O[C@H]3C4CC5CC3C[C@](C(N)=O)(C5)C4)C2)nn1 [Example 116] is above or exactly 90%.
false

Cool, now CN(c1cccc(C(F)(F)F)n1)C1CCN(C(=O)OC2C3CC4CC2CC(C(N)=O)(C4)C3)C1 (stereo not shown) [Example 45]
true

Now the molecule N#Cc1ccc(N[C@@H]2CCN(C(=O)O[C@H]3C4CC5CC3C[C@](O)(C5)C4)C2)cc1 [Example 78]
false

Next molecule: N#Cc1ccc2nc(N[C@@H]3CCN(C(=O)O[C@H]4C5CC6CC4C[C@](O)(C6)C5)C3)ccc2c1 [Example 90]
true

One more molecule: CC(C)(C)NC(=O)c1cc(Cl)cnc1N[C@@H]1CCN(C(=O)O[C@H]2C3CC4CC2C[C@](O)(C4)C3)C1 [Example 102]
false

// repeat for Cc1nccc2nc(N[C@@H]3CCN(C(=O)O[C@H]4C5CC6CC4C[C@](O)(C6)C5)C3)ccc12 [Example 88] and report
false

Try the molecule CS(=O)(=O)N1C2CCC1CC(NC(=O)N1CC[C@@H](Nc3ccc(C#N)cn3)C1)C2 (stereo partly shown) [Example 106]
false

Can you check O=C(O[C@H]1C2CC3CC1C[C@](O)(C3)C2)N1CC[C@@H](Nc2cnc3cc(Cl)ccc3n2)C1 [Example 96] next?
true

Also Cc1cc(N[C@@H]2CCN(C(=O)O[C@H]3C4CC5CC3C[C@](C(N)=O)(C5)C4)C2)nc(C)n1 [Example 33] , if possible.
false

Repeat with COC(=O)C12CC3CC(C1)C(OC(=O)N1CC[C@@H](Nc4ncccc4C#N)C1)C(C3)C2 (stereo partly shown) [Example 70]
false

Same thing, different molecule: CN(c1ccc(C(F)(F)F)cn1)C1CCN(C(=O)O[C@H]2C3CC4CC2C[C@](C(N)=O)(C4)C3)C1 (stereo partly shown) [Example 43]
true

Next record, please: N#Cc1ccc(N[C@H]2CCN(C(=O)O[C@H]3C4CC5CC3C[C@](C(N)=O)(C5)C4)C2)nc1 [Example 65]
true
